Target: T1, human CX3CR1 (human, UniProt P49238 1-355)
T1 construct: overexpressed on CHO, BA/F3 or HEK293T cells; also called huCX3CR1; hCX3CR1
T1 sequence: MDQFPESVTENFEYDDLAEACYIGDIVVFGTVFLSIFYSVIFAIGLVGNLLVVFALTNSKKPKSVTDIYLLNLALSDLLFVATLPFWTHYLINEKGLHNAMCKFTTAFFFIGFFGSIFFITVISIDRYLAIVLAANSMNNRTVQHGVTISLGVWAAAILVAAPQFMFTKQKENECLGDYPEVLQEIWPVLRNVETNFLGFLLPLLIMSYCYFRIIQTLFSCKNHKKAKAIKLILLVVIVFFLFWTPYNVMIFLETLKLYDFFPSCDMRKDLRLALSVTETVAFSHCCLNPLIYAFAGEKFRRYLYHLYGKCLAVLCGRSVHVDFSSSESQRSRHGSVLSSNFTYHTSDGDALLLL
Test: A647-fractalkine competition FACS, HEK293T human CX3CR1
Procedure: Periplasmic extracts were screened in a human CX3CR1/human Fractalkine FACS competition assay to assess the blocking capacity of the expressed VHHs. Human CX3CR1 was presented on CHO cells overexpressing CX3CR1. […] After one hour incubation at 4 C, cells were washed three times before read out was performed on a FACS Array (Becton Dickinson). First a gate was set on the intact cells as determined from the scatter profile. […]
reportedEndpoint: % block (%)
Field format: number, assumed %, no unit text.

Some binders with known % block results, for comparison:
Which % block value belongs to CX3CR1BIIPMP61F11 (VHH, not shown: C-terminal c-myc and His6 tags) VHH: KVQLVESGGGSVQAGESLRLSCAASGSIFSSNAMAWYRQPPGKQRDLVAAINSVGITKYADSVKGRFTIFRDNAKNTVYLQMNSLKPEDTAVYYCTSDPRRGWDTRYWGQGTQVTVSS ?
96

Then this binder: CX3CR1BIIPMP61E2 (VHH, also called 61E02; not shown: C-terminal c-myc and His6 tags) VHH: EVQLVESGGGSVQAGESLRLSCAASGSIFSSNAMAWYRQAPGKQRDLVAGINSVGITKYADSVKGRFTISRDNAKNTVYLQMNSLKPEDMAVYYCTSDPRRGWDTRYWGQGTQVTVSS
98

Another binder to check: CX3CR1BIIPMP54A4 (VHH, also called 54A04; not shown: C-terminal c-myc and His6 tags) VHH: EVQLVESGRGSVQAGESLRLSCAASGSIFSSNAMAWYRQAPGKQRDLVAGINSVGITKYADSVKGRFTISRDNAKNTVYLQMNSLKPEDTAVYYCTSDPRRGWDTRYWGQGTQVTVSS
100

New cases:
Would you mind telling me what % block value was observed for CX3CR1BIIPMP54D5 (VHH, also called 54D05; CX3CR1BII54D5; not shown: C-terminal c-myc and His6 tags) VHH: EVQLVESGGGSVQAGESLRLSCAASGSIFSSNAMAWYRQAPPGKQRDLVALINSVGITKYADSVKGRFTISSDNAKNTVYLEMNSLKPEDTAVYYCTSDGRRGWDTRYWGQGTQVTVSS ?
94

Quick one: CX3CR1BIIPMP54A7 (VHH, also called 54A07; not shown: C-terminal c-myc and His6 tags) VHH: EVQLVESGGGSVQAGESLRLSCAASGTIFSSNAMAWYRQAPGKQRDLVAGINSVDITKYADSVKGRFTISRDNAKNTVYLQMNSLKPEDTAVYYCTSDPRRGWNTRYWGQGTQVTVSS
52

How about this binder: CX3CR1BIIPMP61G4 (VHH, also called 61G04; not shown: C-terminal c-myc and His6 tags) VHH: KVQLVESGGGSVQAGGSLRLSCAASGSIFSSNAMAWYRQAPGKQRDLVAAINSVGITKYADSVKGRFTISRDNAKNTVYLQMMSLKPEDTAVYYCTSDPRRGWDTRYWGQGTQVTVSS
96

Next record, please: CX3CR1BIIPMP54D8 (VHH, also called 54D08; CX3CR1BII54D08; not shown: C-terminal c-myc and His6 tags) VHH: EVQLVESGGGSVQAGGSLRLSCAASGSIFSSNAMAWYRQAPGKQRDLVAGINSVGITKYADSVKGRFTISRDNAKNTVYLQMNSLKPEDTAVYYCTSDPRRGWDTRYWGQGTLVTVSS
95
